Molecular target: 5-HT4 receptors (Rattus norvegicus)
Construct: from tissue; host or cells: rat oesophageal tunica muscularis mucosae
Sequence (Q62758 whole entry): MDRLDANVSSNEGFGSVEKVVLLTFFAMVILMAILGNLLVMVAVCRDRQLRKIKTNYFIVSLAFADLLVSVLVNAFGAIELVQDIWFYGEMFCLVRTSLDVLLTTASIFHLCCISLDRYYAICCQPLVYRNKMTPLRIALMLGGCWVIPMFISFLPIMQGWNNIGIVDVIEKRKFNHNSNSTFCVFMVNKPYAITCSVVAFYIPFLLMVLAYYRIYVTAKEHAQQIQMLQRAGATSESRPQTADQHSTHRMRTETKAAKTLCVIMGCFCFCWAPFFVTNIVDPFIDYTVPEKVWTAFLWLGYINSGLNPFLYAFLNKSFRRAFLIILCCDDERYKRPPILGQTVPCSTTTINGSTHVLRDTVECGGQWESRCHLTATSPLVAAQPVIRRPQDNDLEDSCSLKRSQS
Assay: Relaxation of carbachol-contracted rat oesophageal tunica muscularis mucosae
Type: cell-based
Counter-ions that a name gives are not always drawn.
Catalogue of EC50 readings, one per entry.
ASSAY METRIC: EC50 (nM)

>  <COMPOUND>
CCCCN1[C@@H]2COC[C@H]1C[C@@H](NC(=O)c1nn(CC(C)C)c3ccccc13)C2

>  <NUMERIC RESULT>
5250

$$$$
>  <COMPOUND>
CCCCN1[C@@H]2COC[C@H]1C[C@@H](NC(=O)c1nn(CC3CC3)c3ccccc13)C2

>  <NUMERIC RESULT>
2090

$$$$
>  <COMPOUND>
CC(C)n1nc(C(=O)N[C@H]2C[C@H]3COC[C@@H](C2)N3C)c2ccccc21 [Comparative Example 2, reference compound]

>  <NUMERIC RESULT>
1510

$$$$
>  <COMPOUND>
CCCN1[C@@H]2COC[C@H]1C[C@@H](NC(=O)c1nn(C(CC)CC)c3ccccc13)C2

>  <NUMERIC RESULT>
1660

$$$$
>  <COMPOUND>
CCCCN1[C@@H]2COC[C@H]1C[C@@H](NC(=O)c1nn(C(C)C)c3c(O)cccc13)C2 [Example 27, (hydrochloride)]

>  <NUMERIC RESULT>
15800

$$$$
>  <COMPOUND>
CCCCN1[C@@H]2COC[C@H]1C[C@@H](NC(=O)c1nn([C@H](C)CC)c3ccccc13)C2

>  <NUMERIC RESULT>
1050

$$$$
>  <COMPOUND>
C=CCn1nc(C(=O)N[C@H]2C[C@H]3COC[C@@H](C2)N3CCCC)c2ccccc21

>  <NUMERIC RESULT>
3550

$$$$

----------
Biological target: 5-HT3 receptor (Rattus norvegicus)
Construct: from tissue; host or cells: whole anesthetized rat (in vivo); endogenous receptor
Sequence (P35563 24-483): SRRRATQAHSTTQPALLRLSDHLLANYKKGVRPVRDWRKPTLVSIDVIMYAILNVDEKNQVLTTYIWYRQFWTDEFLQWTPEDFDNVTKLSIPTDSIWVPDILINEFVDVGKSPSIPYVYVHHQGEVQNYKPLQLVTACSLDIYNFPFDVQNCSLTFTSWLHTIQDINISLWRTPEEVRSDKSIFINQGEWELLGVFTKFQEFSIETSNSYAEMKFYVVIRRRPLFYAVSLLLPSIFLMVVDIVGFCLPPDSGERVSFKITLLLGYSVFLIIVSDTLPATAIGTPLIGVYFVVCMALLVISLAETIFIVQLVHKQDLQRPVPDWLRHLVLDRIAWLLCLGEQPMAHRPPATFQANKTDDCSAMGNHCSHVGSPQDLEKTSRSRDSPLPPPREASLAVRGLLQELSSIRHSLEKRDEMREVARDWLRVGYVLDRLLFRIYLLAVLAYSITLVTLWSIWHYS
Assay: 5-HT3 receptor antagonist activity: inhibition of 2-Me-5-HT-induced reduction in heart rate in anesthetized rats
Assay type: in vivo
Conditions: iv (jugular vein) 5 minutes before 2-Me-5-HT 0.1 mg/kg, read-out: IC50 (the source's name)
ASSAY METRIC: ED50 (mg/kg)

>  <COMPOUND>
CCCCN1[C@@H]2COC[C@H]1C[C@@H](NC(=O)c1nn(C(C)CC)c3ccccc13)C2 (relative stereo)

>  <ASSAY METRIC>
ED50

>  <NUMERIC RESULT>
0.0297

$$$$
>  <COMPOUND>
CC(C)n1nc(C(=O)N[C@H]2C[C@H]3COC[C@@H](C2)N3C)c2ccccc21 [Comparative Example 2, reference compound]

>  <ASSAY METRIC>
ED50

>  <NUMERIC RESULT>
0.00032

$$$$
>  <COMPOUND>
CCCCCN1[C@@H]2COC[C@H]1C[C@@H](NC(=O)c1nn(C(C)C)c3ccccc13)C2

>  <ASSAY METRIC>
ED50

>  <NUMERIC RESULT>
0.0281

$$$$
>  <COMPOUND>
CCCCN1[C@@H]2COC[C@H]1C[C@@H](NC(=O)c1nn(C(C)C)c3ccccc13)C2

>  <ASSAY METRIC>
ED50

>  <NUMERIC RESULT>
0.0427

$$$$
>  <COMPOUND>
CCCN1[C@@H]2COC[C@H]1C[C@@H](NC(=O)c1nn(C(C)C)c3ccccc13)C2

>  <ASSAY METRIC>
ED50

>  <NUMERIC RESULT>
0.0089

$$$$
>  <COMPOUND>
CCCCN1[C@@H]2COC[C@H]1C[C@@H](NC(=O)c1nn([C@@H](C)CC)c3ccccc13)C2

>  <ASSAY METRIC>
ED50

>  <NUMERIC RESULT>
0.0183

$$$$
